- System Under Test: T1, recombinant biotinylated human PAR2 extracellular domain (residues 1-75), N-terminal AviTag, C-terminal Flag … (human, UniProt P55085 26-75, biotin on the AviTag (enzymatic biotinylation))
- T1 construct: also called Bio-human-PAR2 ECD; human PAR2 ECD; not shown: N-terminal AviTag (Avidity LLC); C-terminal Flag and poly Histidine tags
- T1 sequence (P55085 26-75): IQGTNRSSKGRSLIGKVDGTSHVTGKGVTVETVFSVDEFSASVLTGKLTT
- Test Summary: Biacore SPR 25 C, pH 7.4
Each item that follows carries a reported kon.
Write down the numeric answer in M⁻¹ s⁻¹ and omit the unit.

Known kon results, listed for orientation:
Binder | Unit Tag | Val
PaB670103 Fab (Fab, V domains shown, Fab; also called ZZ1RCX-C09) VH: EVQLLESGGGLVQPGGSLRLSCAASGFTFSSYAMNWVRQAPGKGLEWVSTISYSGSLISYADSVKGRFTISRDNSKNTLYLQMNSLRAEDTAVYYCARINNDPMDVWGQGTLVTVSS VL: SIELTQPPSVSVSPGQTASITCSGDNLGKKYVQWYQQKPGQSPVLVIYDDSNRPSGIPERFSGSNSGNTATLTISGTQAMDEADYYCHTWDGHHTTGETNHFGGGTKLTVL | M⁻¹ s⁻¹ | 3.52e+06
PaB670048 Fab (Fab, V domains shown, Fab; also called ZZ1KX4-E11) VH: EVQLLESGGGLVQPGGSLRLSCAASGFTFSSYAMNWVRQAPGKGLEWVSTISYSGSLISYADSVKGRFTISRDNSKNTLYLQMNSLRAEDTAVYYCARIHHDPMDHWGQGTLVTVSS VL: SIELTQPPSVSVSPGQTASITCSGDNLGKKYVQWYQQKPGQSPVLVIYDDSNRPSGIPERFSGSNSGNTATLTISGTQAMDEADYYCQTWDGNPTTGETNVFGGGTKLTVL | M⁻¹ s⁻¹ | 4.2e+06

Recorded kon (binder PaB670084 Fab (Fab, V domains shown, Fab; also called ZZ1PXA-A05) VH: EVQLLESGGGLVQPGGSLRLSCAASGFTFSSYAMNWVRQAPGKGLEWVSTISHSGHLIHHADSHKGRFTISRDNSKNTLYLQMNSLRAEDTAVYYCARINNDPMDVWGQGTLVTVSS VL: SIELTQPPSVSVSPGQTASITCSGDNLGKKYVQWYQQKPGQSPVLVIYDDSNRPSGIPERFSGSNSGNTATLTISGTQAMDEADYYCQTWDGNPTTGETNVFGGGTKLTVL ): 6.49e+06
